This collection of values is drawn from patent US10947213B1.

# system_tested: TLR7/NFKb HEK cells (Homo sapiens)
# Sequence (Q9NYK1 27-1049): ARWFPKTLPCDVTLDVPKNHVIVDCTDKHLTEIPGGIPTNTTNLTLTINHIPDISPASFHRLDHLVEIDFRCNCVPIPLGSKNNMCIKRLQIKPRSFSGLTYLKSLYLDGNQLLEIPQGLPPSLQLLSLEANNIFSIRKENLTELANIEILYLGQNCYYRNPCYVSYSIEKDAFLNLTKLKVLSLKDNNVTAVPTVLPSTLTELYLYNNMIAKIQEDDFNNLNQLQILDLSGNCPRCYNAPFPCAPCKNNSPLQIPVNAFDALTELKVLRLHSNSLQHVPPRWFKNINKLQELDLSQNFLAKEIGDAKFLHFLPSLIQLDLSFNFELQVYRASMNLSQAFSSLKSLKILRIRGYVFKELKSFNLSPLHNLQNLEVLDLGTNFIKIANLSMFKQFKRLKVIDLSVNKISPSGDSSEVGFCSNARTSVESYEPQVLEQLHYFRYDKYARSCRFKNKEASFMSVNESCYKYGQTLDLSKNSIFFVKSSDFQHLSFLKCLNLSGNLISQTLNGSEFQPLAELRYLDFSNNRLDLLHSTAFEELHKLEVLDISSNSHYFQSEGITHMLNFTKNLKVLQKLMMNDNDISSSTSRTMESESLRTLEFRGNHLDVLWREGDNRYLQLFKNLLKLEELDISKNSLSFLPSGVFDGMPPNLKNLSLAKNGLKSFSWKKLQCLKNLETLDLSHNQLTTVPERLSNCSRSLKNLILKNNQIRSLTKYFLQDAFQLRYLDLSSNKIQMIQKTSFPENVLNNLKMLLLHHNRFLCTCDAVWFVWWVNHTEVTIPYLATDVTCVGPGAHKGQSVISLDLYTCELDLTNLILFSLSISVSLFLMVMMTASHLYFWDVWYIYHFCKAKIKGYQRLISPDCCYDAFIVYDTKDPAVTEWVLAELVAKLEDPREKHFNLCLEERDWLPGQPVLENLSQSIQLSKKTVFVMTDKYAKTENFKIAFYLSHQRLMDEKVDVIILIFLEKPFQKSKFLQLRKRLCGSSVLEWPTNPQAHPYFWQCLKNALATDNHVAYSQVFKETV
# procedure_text: HEK Cell Assay (TLR7/NFKb reporter, Steady-Glo luciferase readout)
# condition_summary: 30 min compound preincubation, then R*48 agonist for 5 hours, read-out: Potency
Recorded IC50 by entry

Example entries and their recorded answers appear below.
[
  {
    "molecule": "C[C@H]1C[C@@H](NC(=O)CC2CC2(F)F)CN(c2ccc(C(F)F)c3nccnc23)C1 (some centres unmarked)",
    "result": "1000 to 10000 nM"
  },
  {
    "molecule": "CC(C(=O)N[C@@H]1C[C@H](C)CN(c2ccc(C(F)F)c3nccnc23)C1)N1CC(F)(F)C1 (some centres unmarked)",
    "result": "1000 to 10000 nM"
  },
  {
    "molecule": "CCN(CC)CCNCC1CCN(c2c(C)c(C)nc3ccc(F)cc23)CC1",
    "result": "1000 to 10000 nM"
  }
]

Any idea what its IC50 is? The molecule is C[C@H]1C[C@@H](NC(=O)CN2CC(O)C2)CN(c2ccc(C(F)(F)F)c3ncccc23)C1 < 1000 nM

Any idea what its IC50 is? The molecule is C[C@H]1C[C@@H](NC(=O)CC2CCN(C)CC2)CN(c2ccc(C#N)c3nccnc23)C1 < 1000 nM

Any idea what its IC50 is? The molecule is C[C@H]1C[C@@H](NC(=O)CC(C)(C)C)CN(c2ccc(C(F)F)c3ncccc23)C1 < 1000 nM

Any idea what its IC50 is? The molecule is C[C@H]1C[C@@H](NC(=O)CC(C)(C)C)CN(c2c(F)cc(C#N)c3nccnc23)C1 1000 to 10000 nM

Any idea what its IC50 is? The molecule is O=C(NCCN1CCCCC1)C1CCN(c2ccnc3nccnc23)CC1 1000 to 10000 nM
